The origin of these recorded values is PubChem BioAssay AID248.

Test system: L1210 leukemia ip in BDF1 mice, survival T/C
Measurement description: NCI In Vivo Anticancer Drug Screen. Data for tumor model L1210 Leukemia (intraperitoneal) in B6D2F1 (BDF1) mice
Conditions: endpoint: mean survival time; dose: 50.0 mg/kg/injection; schedule: Q04DX003 (ip); vehicle: saline with Tween-80; higher = longer survival
Inconclusive results and toxic doses are left out.
Please go through the items and note down their T/C.

Give T/C (L1210 leukemia ip in BDF1 mice, survival T/C) of the following compound: BrCC1CCCO1 (stereo unspecified)
101 % of control

Queued: `S=C(Nc1ccc(Cl)c(Cl)c1)Sc1ccccc1`
95 % of control

Next entry: COC(=O)C1C2CCC(C2)C1C (stereo unspecified)
97 % of control

Now give it for CCCCN(CCCC)CC(C)O (stereo unspecified) too.
96 % of control

Another compound: `CC1(C)CN(Cc2ccccc2)C(C)(C)CN1N`
102 % of control

Cool, now O=c1n(-c2ccccc2)c(=O)n2n1C1/C=C\C=C/C2C2CCC21 (stereo unspecified)
87 % of control

Another compound to look at: `COC(CBr)OC`
98 % of control

Also `CC1(C)N=C(N)N=C(N)N1c1ccc(CCc2ccccc2)cc1` ?
104 % of control

Record: `CCCCCCCCCCC(=O)N1CCOCC1`
101 % of control

And `CCCSCCCCSCCC` ?
104 % of control

And the next one, `Cc1cc(OC(=O)Nc2c(C)cccc2C)cc(C)c1Cl` ?
93 % of control

====

System: L1210 leukemia ip in BDF1 mice, survival T/C
Measurement description: NCI In Vivo Anticancer Drug Screen. Data for tumor model L1210 Leukemia (intraperitoneal) in B6D2F1 (BDF1) mice
Conditions: endpoint: mean survival time; dose: 400.0 mg/kg/injection; schedule: Q01DX001 (ip); vehicle: saline; higher = longer survival
Inconclusive results and toxic doses are left out.
Exercise: for every item that follows, state its recorded T/C.

Entry under review: `NC(N)(C(F)(F)F)C(F)(F)F` . Reported T/C?
98 % of control

Record: `Cc1ccc(S(=O)(=O)C2=C(c3ccccc3)c3ccccc3CC2)cc1`
95 % of control

Then this molecule: CC1(C)OC(CCl)C2OC(C)(C)OC(CCl)C2O1 (centres undefined)
104 % of control

# repeat for Nc1nc2n(O)cc(C(O)C(O)CO)nc-2c(=O)n1 (centres undefined)
103 % of control

Please give the result for `Cc1nsc(N)n1` too.
101 % of control

Moving on to `CC(C)CCS(=O)(=O)O`
102 % of control

Now consider `CN(C)c1ccc(/C=N\NC(=S)Nc2ccccc2)c(Cl)c1` and answer again.
92 % of control

# repeat for `CCOc1nc(OCC)c2[nH]c(C(=O)O)c(Br)c2n1`
107 % of control

Quick one: `S=P(NC1CCCCC1)(NC1CCCCC1)NC1CCCCC1`
90 % of control

Same thing, different molecule: `COc1ccc([N+](=O)[O-])cc1/C=C/C=O`
100 % of control

Queued: `CC(=O)Nc1ccc(C=O)cc1`
116 % of control

Now give it for `NC(=O)N1CCCCC1` too.
102 % of control

Input `O=C(Nc1cccc2cccnc12)C(F)(F)F`
93 % of control

Now consider `CN(C)c1ccc(SSc2ccc(N(C)C)cc2)cc1` and answer again.
98 % of control

====

System: L1210 leukemia ip in BDF1 mice, survival T/C
Measurement description: NCI In Vivo Anticancer Drug Screen. Data for tumor model L1210 Leukemia (intraperitoneal) in B6D2F1 (BDF1) mice
Conditions: endpoint: mean survival time; dose: 200.0 mg/kg/injection; schedule: Q04DX003 (ip); vehicle: alcohol; higher = longer survival
Inconclusive results and toxic doses are left out.
Assay metric: T/C

Quick check: T/C of O=C(O)C1C(c2c3ccc(=O)c(O)c-3oc3c(O)c(O)ccc23)C2(Cl)C(Cl)=C(Cl)C1(Cl)C2(Cl)Cl (centres undefined) ?
95 % of control

Please do the same for c1ccc2c(c1)C1CC(N3CCCCC3)C2c2ccccc21 (centres undefined) as well.
95 % of control

# iterate: `N=C(N)Sc1cc(O)ccc1O`
104 % of control

# iterate: `Cn1nc(N)c2nccnc21`
98 % of control

====

Tested on: L1210 leukemia ip in BDF1 mice, survival T/C
Measurement description: NCI In Vivo Anticancer Drug Screen. Data for tumor model L1210 Leukemia (intraperitoneal) in B6D2F1 (BDF1) mice
Conditions: endpoint: mean survival time; dose: 100.0 mg/kg/injection; schedule: Q01DX009 (ip); vehicle: other; higher = longer survival
Inconclusive results and toxic doses are left out.
Assay metric: T/C

Please report the recorded T/C for `CCOc1cc(OCC)c(C=O)c(OCC)c1` .
96 % of control

Okay, and `COc1cc2c(cc1OC(C)=O)C=CCCC2=O` ?
97 % of control

Now consider `CCCCCCCCCC(=O)CCCCC` and answer again.
100 % of control

Field entry: `Cc1ccc(CNC(=O)Nc2ccccc2)c(C)c1`
103 % of control

Consider next the compound CC(CN(CCNc1ccccc1)c1ccccc1)c1ccccc1 (configuration not stated) in the same way.
100 % of control

Ok, now `CCc1ccccc1NC(=O)c1ccccc1Cl`
97 % of control

Try this compound too: `O=C(Nc1cccc2ccccc12)NC1CC1`
94 % of control

====

Hi there, I'd appreciate the recorded T/C for every entry that follows.
Test system: L1210 leukemia ip in BDF1 mice, survival T/C
Measurement description: NCI In Vivo Anticancer Drug Screen. Data for tumor model L1210 Leukemia (intraperitoneal) in B6D2F1 (BDF1) mice
Conditions: endpoint: mean survival time; dose: 100.0 mg/kg/injection; schedule: Q01DX001 (ip); vehicle: carboxymethylcellulose (CMC); higher = longer survival
Inconclusive results and toxic doses are left out.

Look up T/C for this compound: `CCOC(=O)CCCN(c1ccc(OC)c(OC)c1)S(=O)(=O)c1ccc(C)cc1`
97 % of control

Same again, this time with `Cc1cc([N+](=O)[O-])cc(C)c1N`
102 % of control

Let us now turn to `CCCO[Si](C)(C)CCl`
92 % of control

Okay, and `CN(C)S(=O)(=O)c1ccc(CC(=O)c2ccccc2)cc1` ?
115 % of control

Then what about the compound O=C(c1ccccc1)C1CCC(C(=O)c2ccccc2)C1=O (stereo unspecified) ?
98 % of control

`CC(=O)NCCCCCC(=O)Nc1ccc(Cl)c(Cl)c1` , same question.
94 % of control

Again, but for `C/C=C(C)/C=N/Nc1nnc(N/N=C/C(C)=C/C)c2ccccc12`
95 % of control

`CC(=O)N1Cc2ncnc(N)c2C1` ?
101 % of control

And then `CC(C)(C)c1ccccc1OC(=O)Nc1ccc(F)cc1` , what is it?
98 % of control

Would you mind doing CS(=O)(=O)n1c(C(O)c2ccccc2)nc2ccccc21 (stereo unspecified) as well?
100 % of control

Entry `CC(CO)(CO)N=Cc1cc(Cl)cc(Cl)c1O` please
97 % of control

`O=c1[nH]c2c(Br)c([N+](=O)[O-])c(Br)cc2c2ccc(Br)cc12` ?
100 % of control

What about this compound? C=CCc1c2c(ccc(OC)c1=O)-c1c(cc(OC)c(OC)c1OC)CCC2NC(C)=O (stereo unspecified)
106 % of control

Please give the result for `COc1ccc(O)c(C(=O)c2cccc(OC)c2C#N)c1` too.
97 % of control

Next entry: `O=C(c1ccccc1)C(Nc1ccc(Br)cc1)Nc1ccc(Br)cc1`
96 % of control

Then this compound: `N#CC(C#N)=Cc1cccc([N+](=O)[O-])c1`
102 % of control

Now this one: `Cc1cccc(CCc2ccc(Br)c(C)c2C)c1C`
100 % of control

Further, for `COc1ccc(Oc2ccc(-c3ccccc3)cc2)cc1` ?
98 % of control

And what about the compound `Nc1nnc(Sc2n[nH]c(=O)[nH]c2=O)s1` ?
98 % of control

Would you kindly repeat that for `CN(C)Cc1cc(C(F)(F)F)ccc1C(O)(c1ccccc1)c1ccccc1` ?
101 % of control

Repeat with `CC(/C=N/NC(N)=S)=N\NC(N)=S`
101 % of control

====

Kindly state T/C for each of the entries shown.
Test system: L1210 leukemia ip in BDF1 mice, survival T/C
Measurement description: NCI In Vivo Anticancer Drug Screen. Data for tumor model L1210 Leukemia (intraperitoneal) in B6D2F1 (BDF1) mice
Conditions: endpoint: mean survival time; dose: 100.0 mg/kg/injection; schedule: Q01DX001 (ip); vehicle: saline; higher = longer survival
Inconclusive results and toxic doses are left out.

Sample `Oc1ccc2ccccc2c1/C=N/N1CCN(/N=C/c2c(O)ccc3ccccc23)CC1` — what was its T/C?
104 % of control

How about this compound: `COC(=O)c1cc([N+](=O)[O-])c(C)s1`
100 % of control

Then `CN(N)C(=S)c1ccc(Cl)cc1` ?
95 % of control

Further, for `CN(CCC#N)C1=CCCCCC1` ?
101 % of control
